TGT: human ACC2 (Homo sapiens, UniProt O00763)
Construct: made in house; host or cells: insect cells (baculoviral expression system)
Sequence (O00763 129-2458 limits assumed): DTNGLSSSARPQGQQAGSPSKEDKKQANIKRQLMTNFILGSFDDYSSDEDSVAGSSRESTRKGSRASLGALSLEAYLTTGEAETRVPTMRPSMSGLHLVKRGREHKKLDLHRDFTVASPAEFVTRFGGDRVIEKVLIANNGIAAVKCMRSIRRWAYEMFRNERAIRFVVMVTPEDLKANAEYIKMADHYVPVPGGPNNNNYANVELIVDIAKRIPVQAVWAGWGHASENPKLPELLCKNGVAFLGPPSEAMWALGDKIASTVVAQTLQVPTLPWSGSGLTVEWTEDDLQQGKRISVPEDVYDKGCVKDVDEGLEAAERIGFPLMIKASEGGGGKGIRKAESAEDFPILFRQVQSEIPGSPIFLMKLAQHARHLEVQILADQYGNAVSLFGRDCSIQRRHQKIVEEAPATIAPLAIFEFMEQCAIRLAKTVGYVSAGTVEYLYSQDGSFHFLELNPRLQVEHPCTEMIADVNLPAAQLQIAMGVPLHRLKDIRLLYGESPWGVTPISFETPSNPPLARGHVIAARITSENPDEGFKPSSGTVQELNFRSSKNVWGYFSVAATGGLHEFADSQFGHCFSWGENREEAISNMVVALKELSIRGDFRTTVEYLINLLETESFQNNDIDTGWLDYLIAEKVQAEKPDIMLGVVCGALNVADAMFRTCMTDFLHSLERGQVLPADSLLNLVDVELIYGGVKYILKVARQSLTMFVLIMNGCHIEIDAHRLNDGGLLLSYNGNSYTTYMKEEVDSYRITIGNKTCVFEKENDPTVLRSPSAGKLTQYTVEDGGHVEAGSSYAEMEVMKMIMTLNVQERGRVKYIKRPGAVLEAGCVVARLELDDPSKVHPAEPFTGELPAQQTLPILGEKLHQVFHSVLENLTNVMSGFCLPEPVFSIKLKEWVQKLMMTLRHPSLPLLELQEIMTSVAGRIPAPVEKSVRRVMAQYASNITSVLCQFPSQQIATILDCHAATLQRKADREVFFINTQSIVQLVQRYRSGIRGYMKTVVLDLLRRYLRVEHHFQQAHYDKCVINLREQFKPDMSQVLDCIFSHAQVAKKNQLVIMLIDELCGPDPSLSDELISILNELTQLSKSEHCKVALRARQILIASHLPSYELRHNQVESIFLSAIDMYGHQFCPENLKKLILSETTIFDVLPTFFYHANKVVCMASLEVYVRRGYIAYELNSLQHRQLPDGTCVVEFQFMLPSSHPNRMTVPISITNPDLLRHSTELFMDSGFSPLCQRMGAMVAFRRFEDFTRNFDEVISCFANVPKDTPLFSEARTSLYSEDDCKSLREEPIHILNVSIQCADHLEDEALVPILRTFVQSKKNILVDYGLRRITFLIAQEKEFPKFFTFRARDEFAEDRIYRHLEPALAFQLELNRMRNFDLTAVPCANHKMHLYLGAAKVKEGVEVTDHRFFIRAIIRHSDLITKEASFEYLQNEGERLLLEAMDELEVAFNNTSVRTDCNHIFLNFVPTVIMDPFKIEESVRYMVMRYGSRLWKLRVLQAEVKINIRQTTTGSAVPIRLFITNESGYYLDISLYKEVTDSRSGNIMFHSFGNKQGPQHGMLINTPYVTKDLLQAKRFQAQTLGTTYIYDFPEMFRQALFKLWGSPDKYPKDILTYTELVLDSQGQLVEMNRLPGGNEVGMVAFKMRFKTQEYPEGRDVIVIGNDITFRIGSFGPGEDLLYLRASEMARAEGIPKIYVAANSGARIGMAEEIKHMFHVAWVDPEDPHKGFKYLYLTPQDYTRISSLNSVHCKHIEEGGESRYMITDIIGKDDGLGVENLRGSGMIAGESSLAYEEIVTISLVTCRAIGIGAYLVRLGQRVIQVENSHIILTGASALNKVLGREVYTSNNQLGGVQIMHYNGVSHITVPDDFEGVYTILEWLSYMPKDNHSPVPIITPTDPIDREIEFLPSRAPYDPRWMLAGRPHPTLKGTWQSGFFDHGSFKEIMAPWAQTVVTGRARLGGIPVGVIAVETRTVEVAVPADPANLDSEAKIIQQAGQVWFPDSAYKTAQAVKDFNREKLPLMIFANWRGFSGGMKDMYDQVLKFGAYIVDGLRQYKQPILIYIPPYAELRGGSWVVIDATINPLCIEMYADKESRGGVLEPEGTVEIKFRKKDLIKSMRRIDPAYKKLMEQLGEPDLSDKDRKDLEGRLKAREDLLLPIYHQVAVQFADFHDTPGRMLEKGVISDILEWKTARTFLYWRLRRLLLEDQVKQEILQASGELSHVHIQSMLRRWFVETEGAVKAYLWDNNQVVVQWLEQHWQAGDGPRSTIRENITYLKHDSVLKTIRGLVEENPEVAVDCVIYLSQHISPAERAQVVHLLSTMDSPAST
MEASUREMENT NOTES: ACC2 assay, spectrophotometric 384 well assay (NADH-linked, coupled lactate dehydrogenase/pyruvate kinase)
Format: biochemical
MEASUREMENT CONDITIONS: ACC2 assay, hACC2 construct lacking 128 N-terminal amino acids, 25° C., 340 nm; read-out: IC50
Strictly below 600 nM in IC50: t. Otherwise: f.

Solved cases (3 shown):
>>> df
                                item_smiles  class_name
0  CCOc1ccc(N2CCC(c3ccc([C@H](C)NC(=O)OC)cc3)CC2)c(C#N)c1           t
1  CC(=O)N[C@@H](C)c1ccc(C2CCN(c3ncc(-c4ccccc4F)cn3)CC2)cc1           t
2  CCOc1ccc(N2CCC(c3ccc([C@H](C)NC(=O)c4ccno4)cc3)CC2)cc1           f

Q: Answer whether the compound CCCCNc1nccc(N2CCC(c3ccc([C@H](C)NC(C)=O)cc3)CC2)n1 has IC50 strictly less than 600 nM
Result: f

Q: Next up: CC(=O)N[C@@H](C)c1ccc(C2CCN(c3ncc4nc(-c5cccs5)oc4n3)CC2)cc1
Result: t

Q: Also CC(=O)N[C@@H](C)c1ccc(C2CCN(c3ccnc(NC(C)C)n3)CC2)cc1 , if possible.
Result: f
